Assay: Tolerability in CD1 mice: kidney function (Example 43)
Type: in vivo
Settings: 50 mg/kg s.c. twice per week for 6 weeks, plasma
Strand notation (5' to 3'): a small letter for the sugar, then the base; units joined by * are phosphorothioate-linked, units joined directly phosphodiester-linked; [ ] holds rarer units or linkages, { } end groups; capitals alone tell only the bases. e = 2'-O-(2-methoxyethyl) (MOE); [5mC] = 5-methylcytosine; d = 2'-deoxy (DNA)
readout-label: Creatinine (mg/dL)
Write it as a number; the unit mg/dL goes unstated.

ISIS 449711: 3-8-3, 4-8-4, 2-10-2, 3-10-3 or 4-10-4 MOE microwalk gapmer (Table 46) (antisense eA*e[5mC]*dA*dG*dT*dT*dT*d[5mC]*dT*dG*dG*d[5mC]*eA*eG) :: 0.2

// next item, Creatinine requested
stdin: Any idea what Creatinine was measured for ISIS 449709: 3-8-3, 4-8-4, 2-10-2, 3-10-3 or 4-10-4 MOE microwalk gapmer (Table 46) (antisense eG*e[5mC]*eA*e[5mC]*dA*dG*dT*dT*dT*d[5mC]*dT*dG*dG*d[5mC]*eA*eG*eG*e[5mC]) ?
stdout: 0.3
